target-desc: DPP-IV obtained from pig kidney (Sus scrofa)
Sequence (P22411 whole entry): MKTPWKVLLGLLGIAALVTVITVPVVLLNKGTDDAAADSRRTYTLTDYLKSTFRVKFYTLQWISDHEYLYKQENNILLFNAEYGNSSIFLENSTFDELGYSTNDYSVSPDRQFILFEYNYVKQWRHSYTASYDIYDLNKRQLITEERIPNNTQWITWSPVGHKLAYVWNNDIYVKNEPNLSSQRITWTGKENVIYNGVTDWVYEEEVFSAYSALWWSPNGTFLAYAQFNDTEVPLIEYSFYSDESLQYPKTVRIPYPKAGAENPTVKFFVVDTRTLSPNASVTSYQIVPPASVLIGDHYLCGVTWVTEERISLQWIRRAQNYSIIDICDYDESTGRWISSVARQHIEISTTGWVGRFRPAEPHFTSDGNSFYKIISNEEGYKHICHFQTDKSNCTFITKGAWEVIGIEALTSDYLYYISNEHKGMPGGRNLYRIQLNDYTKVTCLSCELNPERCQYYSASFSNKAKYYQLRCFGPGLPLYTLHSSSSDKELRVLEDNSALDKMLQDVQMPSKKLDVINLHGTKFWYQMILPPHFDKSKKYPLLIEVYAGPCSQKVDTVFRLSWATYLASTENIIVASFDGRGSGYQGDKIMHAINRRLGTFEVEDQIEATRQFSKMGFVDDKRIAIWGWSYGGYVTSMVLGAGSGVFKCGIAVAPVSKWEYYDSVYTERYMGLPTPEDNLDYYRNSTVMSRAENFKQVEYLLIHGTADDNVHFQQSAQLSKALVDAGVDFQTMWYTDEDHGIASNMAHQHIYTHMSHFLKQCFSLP
pIC50: −log10 of the molar value. Structures can show the parent of a compound that is named as a salt.
Threshold rule: pIC50 greater than or equal to 6 is satisfied; below that, not satisfied.

Known results for compounds:
CC#CCn1c(=O)n(C)c2nc(Cl)nc(N3CCCC(NC)C3)c21 (stereo not shown) [Example 28, trifluoroacetic acid salt] | not satisfied
CC#CCn1c(=S)n(C)c2ncnc(N3CCNCC3)c21 [Example 84, trifluoroacetic acid salt] | not satisfied
CC=CCn1c(=O)n(C)c2nc(Cl)nc(N3CCNCC3)c21 [Example 20, trifluoroacetic acid salt] | satisfied
CC#CCn1c(=O)n(CC(N)=O)c2nc(Cl)nc(N3CCNCC3)c21 [Example 33, trifluoroacetic acid salt] | satisfied
CC#CCn1c(=O)n(CC#CC)c2c(N3CCNCC3)nc(OC)nc21.O=C(O)C(F)(F)F [Example 48, trifluoroacetic acid salt] | satisfied
CC#CCn1c(=O)n(-c2ccsc2)c2nc(OC)nc(N3CCNCC3)c21 [Example 57, trifluoroacetic acid salt] | satisfied

Problem: Reported pIC50 reaches at least 6 for CC#CCn1c(=O)n(C)c2nc(SC)nc(N3CCNCC3)c21 [Example 9, trifluoroacetic acid salt] ?
Solution: satisfied

====

Heads up, these molecules all have pIC50 values measured for DPP-IV obtained from pig kidney (Sus scrofa).
Counter-ions that a name gives are not always drawn.
Numbers only, as −log10 of the molar value.

Use the examples below as a reference point.
CC#CCn1c(=O)n(-c2cccnc2)c2nc(OC)nc(N3CCNCC3)c21 [Example 55, trifluoroacetic acid salt] | 7.43
CC#CCn1c(=O)n(CC#N)c2nc(Cl)nc(N3CCNCC3)c21 [Example 32, trifluoroacetic acid salt] | 6.67
CC#CCn1c(=O)n(CCc2ccc(Br)cc2)c2nc(Cl)nc(N3CCNCC3)c21 [Example 35, trifluoroacetic acid salt] | 7.58
CC#CCn1c(=O)n(C)c2nc(N(C)C)nc(N3CCNCC3)c21 [Example 4, trifluoroacetic acid salt] | 6.48
CC#CCn1c(=O)n(-c2cccnc2)c2ncnc(N3CCNCC3)c21.O=C(O)C(F)(F)F [Example 61, trifluoroacetic acid salt] | 7.21

Take each entry in turn and give its pIC50.
1. C=Cc1ccc(-n2c(=O)n(CC#CC)c3c(N4CCNCC4)nc(OC)nc32)cc1 [Example 58, trifluoroacetic acid salt]
2. CC#CCn1c(=O)n(CCC)c2nc(Cl)nc(N3CCNCC3)c21 [Example 30, trifluoroacetic acid salt]
3. CC#CCn1c(=O)n(C)c2nc(NCc3ccccc3)nc(N3CCNCC3)c21 [Example 17, trifluoroacetic acid salt]
4. CC#CCn1c(=O)n(C)c2nc(Oc3ccccc3C(N)=O)nc(N3CCNCC3)c21 [Example 14, trifluoroacetic acid salt]
5. CC#CCn1c(=O)n(Cc2ccccc2C#N)c2nc(OC)nc(N3CCNCC3)c21 [Example 50, trifluoroacetic acid salt]

Solution:
1: 7.81; 2: 6.88; 3: 6.58; 4: 6.91; 5: 8.44

Take each entry in turn and give its pIC50.
1. C#CCn1c(=O)n(CC#CC)c2c(N3CCNCC3)ncnc21 [Example 70, trifluoroacetic acid salt]
2. CC#CCn1c(=O)n(C)c2nc(OCc3ccccc3)nc(N3CCNCC3)c21 [Example 11, trifluoroacetic acid salt]
3. CC#CCn1c(=O)n(Cc2ccc(C#N)cc2)c2ncnc(N3CCNCC3)c21 [Example 73, trifluoroacetic acid salt]

Solution:
[7.02, 6.75, 7.32]

Note to self: pIC50 recorded for CC#CCOc1nc(N2CCNCC2)c2c(n1)n(C)c(=O)n2CC#CC [Example 16, trifluoroacetic acid salt] was 6.44

Where do these numbers come from? They come from patent US7524847B2.
